IC50 values by entry
- TARGET OR SYSTEM: TDO-expressing HEK293 cell clones (Homo sapiens, UniProt P48775)
- Construct: expressed in transfected cells; host or cells: HEK293
- Sequence (P48775 whole entry): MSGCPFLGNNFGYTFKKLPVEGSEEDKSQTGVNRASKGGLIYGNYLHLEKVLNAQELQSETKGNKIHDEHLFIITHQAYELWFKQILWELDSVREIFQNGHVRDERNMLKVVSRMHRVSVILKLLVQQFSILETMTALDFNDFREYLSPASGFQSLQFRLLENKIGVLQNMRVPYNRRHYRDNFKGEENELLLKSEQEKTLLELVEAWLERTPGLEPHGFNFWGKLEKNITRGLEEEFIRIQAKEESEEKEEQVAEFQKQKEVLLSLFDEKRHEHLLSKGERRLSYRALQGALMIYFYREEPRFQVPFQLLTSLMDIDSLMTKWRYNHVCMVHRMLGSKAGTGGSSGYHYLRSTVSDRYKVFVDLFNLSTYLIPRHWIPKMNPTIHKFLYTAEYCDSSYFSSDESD
- MEASUREMENT DESCRIPTION: Cell based kynurenine assay, TDO-expressing HEK293 cell clones
- PARTICULARS: HEK293 cells, 24 hours of incubation, geometric mean; read-out: HEK293 TDO Kynurenine GMean IC50 (μM) (Cellular Assay)

Previously resolved entries follow.
CCONC(=O)N1CCC(C(C)(C)[C@H](O)c2cc(Cl)cc3cn[nH]c23)CC1 [Compound P-0121] | 0.0001 to 10 µM
C[C@@H](O)C(=O)N1CCC(C(C)(C)[C@H](O)c2cc(Cl)cc3cn[nH]c23)CC1 [Compound P-0131] | 0.0001 to 10 µM
CC(C)(C1CCN(C(=O)NCc2ccncc2)CC1)[C@H](O)c1cc(Cl)cc2cn[nH]c12 [Compound P-0019] | 0.0001 to 10 µM
C[C@H](NC(=O)N1CCC(C(C)(C)[C@H](O)c2cc(Cl)cc3cn[nH]c23)CC1)c1ccccn1 [Compound P-0021] | 0.0001 to 10 µM
O=C(NC1CCC(F)(F)CC1)N1CCC(C(F)(F)C(=O)c2c(F)c(Cl)cc3cn[nH]c23)CC1 [Compound P-0041] | 0.0001 to 10 µM

**Q:** Please provide the recorded IC50 for CC1(CNC(=O)N2CCC(C(C)(C)[C@H](O)c3cc(Cl)cc4cn[nH]c34)CC2)COC1 [Compound P-0031] , tested on TDO-expressing HEK293 cell clones (Homo sapiens, UniProt P48775).
**A:** > 10 µM

**Q:** Subsequent entry: O=S1(=O)CC2(CC(O)(c3cc(Cl)cc4cn[nH]c34)C2)C1 [Compound P-0057]
**A:** 0.0001 to 10 µM

====

- TARGET OR SYSTEM: IDO1 (Homo sapiens, UniProt P14902)
- Construct: His tag (N); made in house; host or cells: E. coli
- Sequence (P14902 whole entry): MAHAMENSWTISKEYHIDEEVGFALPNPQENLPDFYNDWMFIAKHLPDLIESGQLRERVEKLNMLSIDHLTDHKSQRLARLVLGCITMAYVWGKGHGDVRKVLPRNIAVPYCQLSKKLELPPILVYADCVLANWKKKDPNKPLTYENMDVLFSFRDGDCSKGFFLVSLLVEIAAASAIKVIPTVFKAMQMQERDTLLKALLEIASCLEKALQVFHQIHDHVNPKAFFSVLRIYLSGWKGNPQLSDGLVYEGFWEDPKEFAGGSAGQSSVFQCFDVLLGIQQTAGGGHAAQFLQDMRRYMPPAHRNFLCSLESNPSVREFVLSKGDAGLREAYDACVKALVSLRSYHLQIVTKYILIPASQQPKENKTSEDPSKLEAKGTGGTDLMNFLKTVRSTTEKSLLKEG
- MEASUREMENT DESCRIPTION: IDO enzymatic assay
- Type: biochemical
- PARTICULARS: comparative examples 4,6 vs 5,7 indazole; biochemical potency; read-out: IDO1
VALUE KIND: pIC50
In textbook form, pIC50 equals minus log to base ten of the concentration in mol/L.

**Q:** Fill blank: measured pIC50 of the compound `OC1(c2cc(Cl)cc3[nH]ncc23)CC2(CCOCC2)C1` is ____.
**A:** 3.70

====

- TARGET OR SYSTEM: IDO1-expressing HEK293 cell clones (Homo sapiens)
- Construct: expressed in transfected cells; host or cells: HEK293
- MEASUREMENT DESCRIPTION: Cell based kynurenine assay, IDO1-expressing HEK293 cell clones
- PARTICULARS: comparative examples 4,6 vs 5,7 indazole; cellular potency; read-out: hIDO1
VALUE KIND: IC50

OC1(c2cc(Cl)cc3[nH]ncc23)CC2(CCOCC2)C1 | ≥ 10 µM

**Q:** Fill blank: measured IC50 of the compound `OC1(c2cc(Cl)cc3cn[nH]c23)CC2(CCC2)C1` is ____.
**A:** ≥ 10 µM

**Q:** Subsequent entry: `OC1(c2cc(Cl)cc3[nH]ncc23)CC2(CCC2)C1`
**A:** ≥ 10 µM

====

- TARGET OR SYSTEM: IDO1 (Homo sapiens, UniProt P14902)
- Construct: His tag (N); made in house; host or cells: E. coli
- MEASUREMENT DESCRIPTION: IDO enzymatic assay
- Type: biochemical
- PARTICULARS: geometric mean; read-out: IDO1 GMean: IC50 (μM) (Biochemical Assay)
IC50 values by entry

CC(C)(C1CCN(C(=O)CC(F)(F)F)CC1)C(O)c1cc(Cl)cc2[nH]ncc12 (stereo not shown) [Compound P-0051] | 0.0001 to 10 µM
CC(C)(C1CCN(S(=O)(=O)C2CC2)CC1)C(O)c1cc(Cl)cc2[nH]ncc12 (stereo not shown) [Compound P-0073] | 0.0001 to 10 µM
CC(C)(C1CCN(C(=O)Nc2ccc(C#N)nc2)CC1)[C@H](O)c1cc(Cl)cc2cn[nH]c12 [Compound P-0120] | 0.0001 to 10 µM

Okay, now this compound:
**Q:** Fill blank: measured IC50 of the compound CCONC(=O)N1CCC(C(C)(C)[C@H](O)c2cc(Cl)cc3cn[nH]c23)CC1 [Compound P-0121] is ____.
**A:** 0.0001 to 10 µM

====

IC50 values by entry
- TARGET OR SYSTEM: IDO1-expressing HEK293 cell clones (Homo sapiens, UniProt P14902)
- Construct: expressed in transfected cells; host or cells: HEK293
- Sequence (P14902 whole entry): as above
- MEASUREMENT DESCRIPTION: Cell based kynurenine assay, IDO1-expressing HEK293 cell clones
- PARTICULARS: HEK293 cells, 24 hours of incubation, geometric mean; read-out: HEK293 IDO1 Kynurenine GMean IC50 (μM) (Cellular Assay)

Previously resolved entries follow.
CS(=O)(=O)CCNC(=O)N1CCC(C(F)(F)C(=O)c2c(F)c(Cl)cc3cn[nH]c23)CC1 | 0.0001 to 10 µM
CC(C)(C)OC(=O)N1CCC(C(C)(C)[C@H](O)c2cc(Cl)cc3[nH]ncc23)CC1 | > 10 µM
CC(C)(C1CCN(C(=O)NOc2ccccc2)CC1)[C@H](O)c1cc(Cl)cc2cn[nH]c12 | 0.0001 to 10 µM
CCNC(=O)N1CCC(C(F)(F)C(=O)c2c(F)c(Cl)cc3cn[nH]c23)CC1 | 0.0001 to 10 µM
O=C(NC1CCC(F)(F)CC1)N1CCC(C(F)(F)C(=O)c2c(F)c(Cl)cc3cn[nH]c23)CC1 | 0.0001 to 10 µM
CC(C)(C1CCN(C(=O)NOCC2CC2)CC1)[C@H](O)c1cc(Cl)cc2cn[nH]c12 | 0.0001 to 10 µM
CON(C)C(=O)N1CCC(C(C)(C)[C@H](O)c2cc(Cl)cc3cn[nH]c23)CC1 | 0.0001 to 10 µM
CC(C)(C1CCN(C(=O)c2ccc(C(F)(F)F)nc2)CC1)C(O)c1cc(Cl)cc2[nH]ncc12 (stereo not drawn) | 0.0001 to 10 µM
CC(C)(C1CCN(C(=O)N[C@H]2CCC[C@@H]2O)CC1)[C@H](O)c1cc(Cl)cc2cn[nH]c12 | 0.0001 to 10 µM
CC(C)(C1CCN(C(=O)NCCS(C)(=O)=O)CC1)C(O)c1cc(Cl)cc2[nH]ncc12 (stereo not drawn) | > 10 µM

**Q:** Fill blank: measured IC50 of the molecule CC(C)(C1CCN(C(=O)NC[C@H]2CCCO2)CC1)C(O)c1cc(Cl)cc2[nH]ncc12 (stereo partly drawn) is ____.
**A:** 0.0001 to 10 µM

**Q:** Subsequent entry: `CC(C)(C1CCN(C(=O)NCCC#N)CC1)[C@H](O)c1cc(Cl)cc2cn[nH]c12`
**A:** 0.0001 to 10 µM

**Q:** Subsequent entry: `OC1(c2cc(Cl)cc3cn[nH]c23)CCC(F)(F)CC1`
**A:** 0.0001 to 10 µM

**Q:** Subsequent entry: CC(C)(C1CCN(C(=O)NCC#N)CC1)C(O)c1cc(Cl)cc2[nH]ncc12 (stereo not drawn)
**A:** > 10 µM

**Q:** Subsequent entry: CC(C)(C1CCN(S(=O)(=O)C2CC2)CC1)C(O)c1cc(Cl)cc2[nH]ncc12 (stereo not drawn)
**A:** > 10 µM
